- Test Target: K-Ras G12D (Homo sapiens, UniProt P01116, G12D)
- Sequence (P01116 1-188 isoform P01116-2 G12D): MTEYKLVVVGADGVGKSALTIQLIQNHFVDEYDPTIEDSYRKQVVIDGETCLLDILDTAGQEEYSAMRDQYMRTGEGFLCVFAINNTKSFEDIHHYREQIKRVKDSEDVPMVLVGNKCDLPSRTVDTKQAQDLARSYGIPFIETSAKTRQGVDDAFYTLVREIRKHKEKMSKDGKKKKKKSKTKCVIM
- Assay Name: K-Ras G12D activation by SOS1 (KRAS G12D activation by SOS1cat assay, HTRF)
- Condition Details: mean, SOS1cat mediated loading of GST-KRAS G12D-GDP with fluorescent GTP analogue, read-out: K-Ras G12D activation by SOS1 IC50 - [mol/l] (mean)
Below, each of the molecules is paired with its reported IC50 value.
Value expressed in nM; do not type the unit.

Some solved entries appear below for comparison.
Oc1cc(Nc2nc3c(N4CC5CCC(C4)N5)nc(OC[C@@]45CCCN4C[C@H](F)C5)nc3s2)c2ccccc2c1 [Example 28] = 1410
Cc1cccc2cc(O)cc(Oc3nc4c(N5CC6CCC(C5)N6)nc(OCC56CCCN5CCC6)nc4s3)c12 [Example 4] = 79.8
C#Cc1c(F)ccc2cc(O)cc(Oc3nc4c(N5CC6COCC(C5)N6)nc(OC[C@@]56CCCN5C[C@H](F)C6)nc4s3)c12 [Example 12] = 23.7
CN(c1nc2c(N3CC4CCC(C3)N4)nc(OC[C@@]34CCCN3C[C@H](F)C4)nc2s1)c1cc(O)cc2ccccc12 [Example 29] = 284

Ask | Which measured IC50 value corresponds to C#Cc1c(F)ccc2cc(O)cc(Oc3nc4c(N5CC6CCC(C5)NC6)nc(OC[C@@]56CCCN5C[C@H](F)C6)nc4s3)c12 (single isomer, unassigned) [Example 21] ?
Reply | 219

Ask | State the recorded IC50 for this entry: C#Cc1c(F)ccc2cc(O)cc(Oc3nc4c(N5C[C@H]6CC(F)[C@@H](C5)N6)nc(OC[C@@]56CCCN5C[C@H](F)C6)nc4s3)c12 (single isomer, unassigned) [Example 24]
Reply | 26.7

Ask | Which IC50 is reported for this molecule? Cn1c(Oc2cc(O)cc3ccccc23)nc2nc(OCC34CCCN3CCC4)nc(N3CC4CCC(C3)N4)c21 [Example 18]
Reply | 15300

====

The compounds below have reported IC50 for K-Ras-wildtype (Homo sapiens).
Entry rule: numbers only, all in nM.

Known IC50 results, listed for orientation:
C#Cc1c(F)ccc2cc(O)cc(Oc3nc4c(N5CC6CCC(C5)NC6)nc(OC[C@@]56CCCN5C[C@H](F)C6)nc4s3)c12 (relative stereo) [Example 16] = 212
C#Cc1c(F)ccc2cc(O)cc(Oc3nc4c(N5CC6CCC(C5)NC6)nc(OC[C@@]56CCCN5C[C@H](F)C6)nc4s3)c12 (single isomer, unassigned) [Example 21] = 182

Please find the next compound below.
Ask | Given the compound C#Cc1c(F)ccc2cc(O)cc(Oc3nc4c(N5CC6COCC(C5)N6)nc(OC[C@@]56CCCN5C[C@H](F)C6)nc4s3)c12 [Example 12] , what is its reported IC50?
Reply | 15.8

====

- Test Target: K-Ras G12D (Homo sapiens, UniProt P01116, G12D)
- Assay Name: K-Ras G12D activation by SOS1 (KRAS G12D activation by SOS1cat assay, HTRF)
- Condition Details: mean, SOS1cat mediated loading of GST-KRAS G12D-GDP with fluorescent GTP analogue, read-out: K-Ras G12D activation by SOS1 IC50 - [mol/l] (mean)
pIC50 values, listed per item
Kindly note that pIC50 refers to -log10 of the concentration in mol/L and answer with the value alone.

C#Cc1c(F)ccc2cc(O)cc(Oc3nc4c(N5C[C@H]6CC(F)[C@@H](C5)N6)nc(OC[C@@]56CCCN5C[C@H](F)C6)nc4s3)c12 (single isomer, unassigned) [Example 27] = 7.63

Ask | What value of pIC50 has been recorded for this entry: C#Cc1cccc2cc(O)cc(N(C)c3nc4c(N5CC6CCC(C5)N6)nc(OC[C@@]56CCCN5C[C@H](F)C6)nc4s3)c12
Reply | 8.35

====

IC50 values for the compounds below.
- Test Target: UniProtKB P01116

Please review the entries below; each comes with its answer.
Oc1cc(Oc2nc3c(N4CC5CCC(C4)N5)nc(OCC45CCCN4CCC5)nc3[nH]2)c2ccccc2c1 [Example 10] = > 20 µM
Cn1c(Oc2cc(O)cc3ccccc23)nc2nc(OCC34CCCN3CCC4)nc(N3CC4CCC(C3)N4)c21 [Example 18] = > 20 µM
Cn1c(Oc2cc(O)cc3ccccc23)nc2c(N3CC4CCC(C3)N4)nc(OCC34CCCN3CCC4)nc21 [Example 9] = > 20 µM

Ask | Param readout = IC50; param system = UniProtKB P01116; param query = C#Cc1c(F)ccc2cc(O)cc(Oc3nc4nc(OCC56CCCN5CCC6)nc(N5CC6CCC(C5)N6)c4n3C)c12 [Example 22] ; response: value
Reply | > 20 µM

====

The following are reported IC50 results, target or system K-Ras-wildtype (Homo sapiens, UniProt P01116).

Solved entries (count: 3):
Oc1cc(Oc2nc3c(N4CC5CCC(C4)N5)nc(OCC45CCCN4CCC5)nc3s2)c2ccccc2c1 [Example 1] = ≥ 20 µM
Oc1cc(Nc2nc3c(N4CC5CCC(C4)N5)nc(OC[C@@]45CCCN4C[C@H](F)C5)nc3s2)c2ccccc2c1 [Example 28] = > 20 µM
Oc1cc(Nc2nc3c(N4CC5CCC(C4)N5)nc(OCC45CCCN4CCC5)nc3s2)c2ccccc2c1 [Example 7] = ≥ 20 µM

Please find the next molecule below.
Ask | Reported IC50 for K-Ras-wildtype (Homo sapiens, UniProt P01116), given Cn1c(Oc2cc(O)cc3cccc(F)c23)nc2c(N3CC4CCC(C3)N4)nc(OCC34CCCN3CCC4)nc21 [Example 8] ?
Reply | > 20 µM

====

- Test Target: K-Ras G12D (Homo sapiens, UniProt P01116, G12D)
- Assay Name: K-Ras G12D activation by SOS1 (KRAS G12D activation by SOS1cat assay, HTRF)
- Condition Details: mean, SOS1cat mediated loading of GST-KRAS G12D-GDP with fluorescent GTP analogue, read-out: K-Ras G12D activation by SOS1 IC50 - [mol/l] (mean)
- Method: Preparation of test compound dilutions. […] Measurement and evaluation of inhibition data, calculation of IC50 values. Homogeneous time-resolved fluorescence (HTRF) was measured with a PHERAstar reader (BMG, Germany) using the HTRF module (excitation: 337 nm; emission 1: 620 nm, emission 2: 665 nm). […] IC50 values were calculated using a four-parameter fit, with a commercial software package (Genedata Screener, Switzerland). […]
Reported IC50 by item:
Give the number; nM is assumed, so skip it.

C#Cc1c(F)ccc2cc(O)cc(Oc3nc4c(N5CC6CCC(C5)NC6)nc(OC[C@@]56CCCN5C[C@H](F)C6)nc4s3)c12 (single isomer, unassigned) [Example 20] = 8.11
C#Cc1c(F)ccc2cc(O)cc(Oc3nc4c(N5CC6CCC(C5)NC6)nc(OC[C@@]56CCCN5C[C@H](F)C6)nc4s3)c12 (relative stereo) [Example 16] = 15.2

Ask | IC50 lookup needed for C#Cc1c(F)ccc2cc(O)cc(Oc3nc4nc(OCC56CCCN5CCC6)nc(N5CC6CCC(C5)N6)c4n3C)c12 [Example 22] , thanks.
Reply | 89.5

Ask | Query (molecule): C=Cc1c(F)ccc2cc(O)cc(Oc3nc4c(N5CC6CCC(C5)N6)nc(OC[C@@]56CCCN5C[C@H](F)C6)nc4s3)c12 [Example 17] ; field requested: IC50
Reply | 13.4

Ask | Which IC50 value belongs to Oc1cc(Oc2nc3c(N4CC5CCC(C4)N5)nc(OCC45CCCN4CCC5)nc3s2)c2ccccc2c1 [Example 1] ?
Reply | 1000
